- System: HMLE_sh_eGFP viability, CellTiter-Glo luminescence, 72 h
- procedure summary: cytotoxicity in HMLE control line with eGFP shRNA, dose response, counter-screen for HMLE_sh_ECad selective toxicity project, cell-based, HMLE_sh_eGFP, luminescence (AID 463074);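 note: counterscreen control line to flag general toxicity for the HMLE_sh_ECad screen; potency for loss of viability as luminescence drops below DMSO wells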
The source made the active and inactive calls.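 Rule for the calls: active = AC50 no more than tenfold above the top dose tested, or full inhibition at every dose with a flat fit (cut at about 19 µM in these data); inconclusive = flat curve fit with inhibition between 30% and 70%, or poor fit; inactive = AC50 more than tenfold above the top dose tested.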
Reported AC50 by item:
experimental readout: AC50

molecule: CC(Nc1nc(-c2ccc(Cl)cc2)cs1)c1nc2cc(Cl)c(N3CCCCC3)cc2n1CCOCCO (configuration not stated)
result: 1.97 µM
--
molecule: C=C(C)COc1ccc(-c2nc(N)ncc2-c2ccc(Br)cc2)c(O)c1
result: 7.37 µM
--
molecule: Cc1ccc(-c2cc(C(=O)N3CCN(c4ccc(O)cc4)CC3)c3ccccc3n2)cc1
result: 8.38 µM
--
molecule: OC(CNCC1CCCO1)Cn1c2ccc(Cl)cc2c2cc(Cl)ccc21 (configuration not stated)
result: 7.38 µM
--
molecule: CCCCCc1ccc(OCCCC[n+]2cccc(C)c2)c(CCCCC)c1
result: 7.42 µM
--
molecule: CN1C2CCC1/C(=C\c1ccccc1)C(=O)/C2=C\c1ccccc1
result: 4.24 µM
--
molecule: Cn1c(-c2ccsc2)c(-c2cccs2)c2cc(Br)ccc21
result: 5.92 µM
--
molecule: O=C(Nc1ccn(Cc2ccccc2F)n1)c1ccc(COc2ccc(Cl)cc2Cl)o1
result: > 19.5 µM (inactive)
--
molecule: O=c1c2ccccc2oc2ccc(C#CC3(O)CCCCC3)cc12
result: 7.11 µM
--
molecule: COc1cc(CNC(C)(C)CO)cc(Br)c1OCc1ccc(Cl)cc1Cl
result: 6.07 µM
--
molecule: Cc1ccn2c(NC3CCCCC3)c(-c3cccc(-c4cccc(Cl)c4)c3)nc2c1
result: 6.68 µM
--
molecule: CCCSc1nsc(NC(=O)Nc2ccc(F)cc2F)n1
result: 4.87 µM
--
molecule: O=C(c1c[nH]c2ccccc12)C(Cl)c1ccccc1 (configuration not stated)
result: 11.2 µM
--
molecule: CCCCN=C(NNc1ccc(Br)cc1)C(=O)OCC
result: 3.99 µM
--
molecule: Cc1ccc(NC(=O)/C=C/c2ccc3c(c2)OCO3)nc1
result: 1.16 µM
--
molecule: CC(C)=CCc1c(O)cc2c(c1O)C(=O)CC(c1ccc(O)cc1)O2 (configuration not stated)
result: 3.74 µM
--
molecule: CCC/C(=C1/c2ccccc2C(=O)N1c1ccccc1)c1ccc2[nH]ccc2c1
result: 1.67 µM
--
molecule: COc1cc(F)c(C2=CC(=O)C[C@H](c3ccc(Cl)cc3)C2)cc1F
result: 3.48 µM
--
molecule: COc1ccc(CN2CCC(N(CCc3ccccc3)Cc3ccccc3)CC2)c(OC)c1
result: 5.43 µM
--
molecule: COc1cc(/C=N/N(c2ccccc2)c2ccccc2)ccc1O
result: 6.34 µM
--
molecule: Cc1cc(C)cc(NC(=O)CCc2nc3sc4c(c3c(=O)[nH]2)CCCC4)c1
result: 5.26 µM
--
molecule: N/C(=N\N=C/c1ccc(F)cc1)N/N=C\c1ccc(F)cc1
result: 5.13 µM
